For each entry below, report its growth inhibition value.
Experiment: NCI Yeast Anticancer Drug Screen. Data for the rad50 strain (AID 155);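 further: 0% = growth of vehicle-only cultures of the same strain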
Settings: S. cerevisiae rad50 strain growth inhibition; at 5.0 µM (retest, dose inferred, filed as 0.5); stronger effect = higher value
This is part of a sample that, as a whole, favours compounds with a hit. Of some 79,000 tested, about 15% had one in any assay.
Numbers only, in %.

See these solved cases before continuing.
Measured growth inhibition, O=C1c2ccccc2C(=O)c2c1ccc(O)c2O : 79

Measured growth inhibition, CCOC(=O)[C@@H](F)[C@H](Br)C(=O)OCC : 86

Measured growth inhibition, CN(c1ccccc1)c1c2c(oc(=O)c1Cl)-c1ccccc1SC2 : 16

Measured growth inhibition, CNC(=O)c1cccc2c(Nc3ccc(NS(C)(=O)=O)cc3OC)c3cccc(C)c3nc12 : 47

Measured growth inhibition, CCN(CC)CC(O)CNc1ccc(NCC(O)CCl)c2c1C(=O)c1ccccc1C2=O (stereo unspecified) : 98

Kindly give each listed record's growth inhibition.
1. O=c1cccc(C2CCc3cc(O)ccc3C2)[nH]1 (stereo unspecified)
2. CC1=C2CCC3C(CCC4(C)C(C(C)CCCC(C)C)CCC34)C2(C)CCC1=O (stereo unspecified)
3. Cc1ccc(NC(=O)CCc2nnc(N)n2N)cc1
4. CC/C(=N\NC(=S)SC)c1ccccn1
5. O=C1CSC(c2ccc([N+](=O)[O-])cc2)N1c1ccc(-c2ccc(-n3c(-c4ccccc4)nc4ccccc4c3=O)cc2)cc1 (stereo unspecified)
6. CCCCN1C(=O)C(=O)N(c2ccccc2)C1=O

[-5, -11, -2, 24, -1, -6]

====

Assay: NCI Yeast Anticancer Drug Screen. Data for the mec2-1 strain (AID 157)
Details: S. cerevisiae mec2-1 strain, at 50.0 µM (retest, dose inferred, filed as 5.0), stronger effect = higher value
The panel holds about 79,000 compounds, 15% with a hit somewhere; the sample as a whole holds those more often.
Label class 1 when growth inhibition is at or above 90%; otherwise label class 0.

Does the compound COC1=C(NC(C)=O)C(=O)c2nc(-c3nc(C(=O)O)c(C)c(-c4ccc(OC)c(OC)c4O)c3N)ccc2C1=O have recorded growth inhibition that is 90% or more? class 0

New cases:
Does the compound O=C(n1c2ccccc2c2n[nH]c(=S)nc21)C(F)(F)F have recorded growth inhibition that is 90% or more? class 0

Does the compound CCCCCCCCCCCCCC(=O)NO have recorded growth inhibition that is 90% or more? class 1

Does the compound O=c1c(Cl)c(Cl)oc(Cl)c1Cl have recorded growth inhibition that is 90% or more? class 1

Does the compound CCCCCCC1CCC(CCCCCCCC(=O)N2CCN(C)CC2)C(C/C=C/CCCCCCCC(=O)N2CCN(C)CC2)C1CCCCC (stereo not given) have recorded growth inhibition that is 90% or more? class 0

Does the compound CCCCc1c(O)c(N=NC(=O)C[n+]2ccccc2)c2ccccc2c1O have recorded growth inhibition that is 90% or more? class 0

Does the compound CN(C)c1ccc(/C=C(/C#N)c2ccc(Cl)cc2)cc1 have recorded growth inhibition that is 90% or more? class 0

Does the compound COC1/C=C/OC2(C)Oc3c(C)c(O)c4c(c3C2=O)C(=O)c2cnc(nc2C4=O)/C(C)=C\C=C\C(C)C(O)C(C)C(O)C(C)C(OC(C)=O)C1C (stereo not given) have recorded growth inhibition that is 90% or more? class 1

Does the compound Sc1c(Br)cc(Br)cc1Br.[Ag] have recorded growth inhibition that is 90% or more? class 1

====

Test: NCI Yeast Anticancer Drug Screen. Data for the cln2 rad14 strain (AID 165);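 further: 0% = growth equal to vehicle treated cultures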
Settings: S. cerevisiae cln2 rad14 strain, at 5.0 µM (retest, dose inferred, filed as 0.5), stronger effect = higher value
Method: Growth inhibition of yeast strains with defined genetic alterations is measured as a screen for potential anti-cancer activity. Selected strains with alterations in DNA damage repair or cell cycle control were exposed to compounds and growth inhibition was measured relative to vehicle treated controls. The strain used in this assay is cln2 rad14
This is part of a sample that, as a whole, favours compounds with a hit. Of some 79,000 tested, about 15% had one in any assay.
MEASUREMENT TYPE: growth inhibition (%)
Answers are plain numbers, in %.

See these solved cases before continuing.
Measured growth inhibition, CCNc1cc(SC)nc(N)n1 : -8

Measured growth inhibition, Oc1ccc(-c2ccccc2)cc1Cl : -11

Measured growth inhibition, Clc1ccc(C2=CCN3CC=C(c4ccc(Cl)cc4)C23)cc1 : 13

Measured growth inhibition, O=C(NC[N+]12CCO[B-]1(c1ccc(Br)cc1)OCC2)c1ccccc1O (configuration not stated) : -4

Measured growth inhibition, CCOC(=O)CNC(=O)CNC(=O)CNC(c1ccccc1)(c1ccccc1)c1ccccc1 : -10

Measured growth inhibition, CCCCCCCCCCCCCCCc1ncc(C)[nH]1 : 28

Kindly give each listed record's growth inhibition.
1. CC12C(=O)OC(=O)C1C1c3ccccc3C2c2ccccc21 (configuration not stated)
2. O=C(Sc1ccccc1)C1OC12CCCCC2 (configuration not stated)

51
-62

Kindly give each listed record's growth inhibition.
1. COc1c(O)cc(C=O)cc1[N+](=O)[O-]
2. CCCCCCCCCC1OCC(O)CO1 (configuration not stated) (tested in a mixture with another compound)
3. O=c1oc2ccccc2c(O)c1/C=N/C(=S)NCc1ccccc1

1: 4; 2: 3; 3: -19

Measured growth inhibition, CC1CC(=O)OC(C(=O)c2ccccc2)N1c1ccc(C(F)(F)F)cc1N (configuration not stated) : 0

====

Assay: NCI Yeast Anticancer Drug Screen. Data for the cln2 rad14 strain (AID 165);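 further: 0% = growth equal to vehicle treated cultures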
Conditions: S. cerevisiae cln2 rad14 strain, at 50.0 µM
The panel holds about 79,000 compounds, 15% with a hit somewhere; the sample as a whole holds those more often. Calls of active or inactive are those of the source. Cut-off read from the data, not from the text of the source: active = growth inhibition above about 70%; inactive = the rest.
Can you answer with just one of these options? active, inactive

As a guide, the following entries are already answered.
Entry Cc1ccc(/C=C2\CCCC(CN3CCCCC3)C2=O)cc1 (stereo not given) : call = ? active

Entry S=C1NC2=C(CSC/C2=C\c2cccc(Br)c2)C(c2cccc(Br)c2)N1 (stereo not given) : call = ? active

Entry CCN(CC)C(C)(C)C(=O)/C=C/c1ccc(Cl)cc1 : call = ? inactive

Entry COc1ccc(/C=C2\C(=O)N(C)C(=O)c3cc(OC)c(OC)cc32)cc1OC : call = ? inactive

Entry CCC[CH2][Sn]([CH2]CCC)([O]C(=O)c1cc(OC)c(OC)cc1OC)[O][Sn]([CH2]CCC)([CH2]CCC)[O]C(=O)c1cc(OC)c(OC)cc1OC : call = ? active

Entry Cc1ccc(-n2c(CSc3ccc(Cl)cc3)nnc2SCc2nc3ccccc3[nH]2)cc1 : call = ? active

New cases:
Entry CC(CN(C)C)C(/C=C/c1ccc(Cl)c(Cl)c1)=N\Nc1ccccc1 (stereo not given) : call = ? inactive

Entry COc1cc2cc[n+]3c4ccc([N+](=O)[O-])cc4ccc3c2cc1OC : call = ? inactive

Entry CCCCc1[nH]ccc2c(C)c3nc4ccccc4c3cc12 : call = ? active

Entry CC1=C/C(=C\c2ccc([N+](=O)[O-])o2)C(=O)O1 : call = ? active

====

Assay: NCI Yeast Anticancer Drug Screen. Data for the bub3 strain (AID 167)
Conditions: S. cerevisiae bub3 mutant strain, at 50.0 µM (retest, dose inferred, filed as 5.0), stronger effect = higher value
Protocol: Growth inhibition of yeast strains with defined genetic alterations is measured as a screen for potential anti-cancer activity. Selected strains with alterations in DNA damage repair or cell cycle control were exposed to compounds and growth inhibition was measured relative to vehicle treated controls. The strain used in this assay is bub3
The panel holds about 79,000 compounds, 15% with a hit somewhere; the sample as a whole holds those more often.
For each entry below, report its growth inhibition value.
Answers are plain numbers, in %.

Measured growth inhibition, COC1/C=C/OC2(C)Oc3c(C)c(O)c4c(c3C2=O)C(=O)c2cnc(nc2C4=O)/C(C)=C\C=C\C(C)C(O)C(C)C(O)C(C)C(OC(C)=O)C1C (stereo not given) : 98

Measured growth inhibition, CCN1C2=NC(=O)N(C)C(=O)C2(Cl)C(C(SC)S(=O)(=O)c2ccc(C)cc2)c2ccccc21 (stereo not given) : 1

Measured growth inhibition, COc1ccc(C2c3cc4c(cc3OC(NCCO)C2C)OCO4)cc1 (stereo not given) : 95

Measured growth inhibition, CCCCCCCC[N+](C)(C)Cc1ccc(C[N+](C)(C)CCCCCCCC)cc1 : 16

Measured growth inhibition, CCOc1nc(N)nc(C)c1N=Nc1ccc(Br)cc1 : 88

Kindly give each listed record's growth inhibition.
1. CN(C)C(=O)/N=c1\ss/c(=N\C(=S)N(C)C)n1-c1ccccc1
2. Cc1c(C(C)(C)C)cc(C(C)(C)C)c(O)c1CN(C)Cc1c(C)c(C(C)(C)C)cc(C(C)(C)C)c1O
3. c1ccc(CCC2=Nc3ccccc3CO2)cc1
4. O=C1C/C(=C\c2ccccc2)C(=O)c2ccccc2N1
5. COc1cc(CSc2ccc(O)cc2)cc(OC)c1OC

1. 50
2. 13
3. -69
4. 19
5. 21
